Assignment: determine reported pIC50 for the given molecules.
- target: KRAS G12D (Homo sapiens (Human), UniProt P01116+P62937, G12D)
- Sequence (P01116 other isoform, or with tags, fused parts or gaps G12D, one chain of several): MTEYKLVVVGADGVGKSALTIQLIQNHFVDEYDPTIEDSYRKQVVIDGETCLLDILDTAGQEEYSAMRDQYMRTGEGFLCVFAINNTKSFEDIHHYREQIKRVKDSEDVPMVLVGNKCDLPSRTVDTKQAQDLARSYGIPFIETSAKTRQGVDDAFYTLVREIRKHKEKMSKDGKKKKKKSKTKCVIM
- protocol_summary: Ras-Raf disruption/FRET/MOA assay (BRAF RBD, Cyclophilin A)
- Format: biochemical
- experimental_setup: read-out: KRAS G12D FRET IC50
pIC50: −log10 of the molar value.

Consider the worked cases shown below.
CCn1c(-c2cccnc2[C@H](C)OC)c2c3cc(ccc31)-c1csc(n1)C[C@H](NC(=O)[C@H](C(C)C)N(C)C(=O)N(C)C1CN(C)C1)C(=O)N1CCC[C@H](N1)C(=O)OCC(C)(C)C2    6.00 to 7.00
CCn1c(-c2cccnc2[C@H](C)OC)c2c3cc(ccc31)-c1cc(O)cc(c1)C[C@H](NC(=O)[C@H](C(C)C)N(C)C(=O)[C@H]1CCCCNC1)C(=O)N1CCC[C@H](N1)C(=O)OCC(C)(C)C2    7.00 to 8.00
CCn1c(-c2cnccc2COC)c2c3cc(ccc31)-c1cc(O)cc(c1)C[C@H](NC(=O)[C@H](C(C)C)N(C)C(=O)N1CCN(C)CC1)C(=O)N1CCC[C@H](N1)C(=O)OCC(C)(C)C2    5.00 to 6.00
CCn1c(-c2cccnc2[C@H](C)OC)c2c3cc(ccc31)-c1csc(n1)C[C@H](NC(=O)[C@H](C(C)C)N(C)C(=O)N1[C@H](C)COC[C@H]1C)C(=O)N1CCC[C@H](N1)C(=O)OCC(C)(C)C2    6.00 to 7.00

-- ask Supply pIC50 measured with KRAS G12D (Homo sapiens (Human), UniProt P01116+P62937, G12D) for `CCn1c(-c2cccnc2[C@H](C)OC)c2c3cc(ccc31)-c1csc(n1)C[C@H](NC(=O)[C@H](C(C)C)N(C)C(=O)N1CCN(C)CC13CC3)C(=O)N1CCC[C@H](N1)C(=O)OCC(C)(C)C2` .
-- reply 5.00 to 6.00

====

- target: K-Ras G12C(GMP-PNP) binding to BRAF RBD (Homo sapiens (Human), UniProt P01116+P62937, G12C)
- Sequence (P01116 other isoform, or with tags, fused parts or gaps G12C): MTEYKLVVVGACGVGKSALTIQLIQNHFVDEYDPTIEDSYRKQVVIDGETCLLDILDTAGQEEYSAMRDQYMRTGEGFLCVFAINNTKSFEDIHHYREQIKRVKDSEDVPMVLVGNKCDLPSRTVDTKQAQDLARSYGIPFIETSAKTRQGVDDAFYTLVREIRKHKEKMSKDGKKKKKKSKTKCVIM
- Sequence (P62937 whole entry): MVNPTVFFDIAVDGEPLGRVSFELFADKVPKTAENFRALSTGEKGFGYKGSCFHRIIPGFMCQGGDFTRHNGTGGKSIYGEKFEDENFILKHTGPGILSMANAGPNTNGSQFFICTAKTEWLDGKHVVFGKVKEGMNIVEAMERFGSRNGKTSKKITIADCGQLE
- protocol_summary: Disruption of BRAF RBD interaction with K-Ras (FRET / MOA assay), K-Ras G12C
- Assay type: biochemical
- experimental_setup: read-out: KRAS G12C FRET IC50
pIC50: −log10 of the molar value.
Can you tell me pIC50 for the items I'm about to list?

CCn1c(-c2cccnc2[C@H](C)OC)c2c3cc(ccc31)-c1csc(n1)C[C@H](NC(=O)[C@H](C(C)C)N(C)C(=O)N1CCC13CN(C)C3)C(=O)N1CCC[C@H](N1)C(=O)OCC(C)(C)C2    5.00 to 6.00

Next item in the queue.
-- ask Tell me its pIC50 given `CCn1c(-c2cccnc2[C@H](C)OC)c2c3cc(ccc31)-c1cc(O)cc(c1)C[C@H](NC(=O)[C@H](C(C)C)N(C)C(=O)[C@H]1CCN(C)C1)C(=O)N1CCC[C@H](N1)C(=O)OCC(C)(C)C2` as the entry.
-- reply 5.00 to 6.00

====

- target: KRAS WT (Homo sapiens (Human), UniProt P01116+P62937)
- Sequence (P01116 other isoform, or with tags, fused parts or gaps, one chain of several): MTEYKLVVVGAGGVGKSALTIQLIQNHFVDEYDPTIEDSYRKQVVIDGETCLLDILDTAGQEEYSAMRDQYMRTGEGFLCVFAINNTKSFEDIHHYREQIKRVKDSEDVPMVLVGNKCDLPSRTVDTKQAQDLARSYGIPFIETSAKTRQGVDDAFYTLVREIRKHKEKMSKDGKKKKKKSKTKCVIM
- protocol_summary: Ras-Raf disruption/FRET/MOA assay (BRAF RBD, Cyclophilin A)
- Format: biochemical
- experimental_setup: read-out: KRAS WT FRET data IC50
Could you please report measured IC50 for the items listed next?

Below are worked cases with known answers.
CCn1c(-c2cccnc2[C@H](C)OC)c2c3cc(ccc31)-c1cc(O)cc(c1)C[C@H](NC(=O)[C@H](C(C)C)N(C)C(=O)[C@H]1CCN(C(=O)C(C)(C)NC)C1)C(=O)N1CCC[C@H](N1)C(=O)OCC(C)(C)C2    10 to 100 nM
CCn1c(-c2cccnc2[C@H](C)OC)c2c3cc(ccc31)-c1cc(O)cc(c1)C[C@H](NC(=O)[C@H](C(C)C)N(C)C(=O)[C@H]1CC[C@@H]1N)C(=O)N1CCC[C@H](N1)C(=O)OCC(C)(C)C2    10 to 100 nM
CCn1c(-c2cccnc2[C@H](C)OC)c2c3cc(ccc31)-c1cc(O)cc(c1)C[C@H](NC(=O)[C@H](C(C)C)N(C)C(=O)[C@H]1CNC[C@@H]1C)C(=O)N1CCC[C@H](N1)C(=O)OCC(C)(C)C2    100 to 1000 nM

# evaluate next
-- ask Consider the compound `CCn1c(-c2cc(N3CCN(C)CC3)cnc2[C@H](C)OC)c2c3cc(ccc31)-c1csc(n1)C[C@H](NC(=O)[C@H](C(C)C)N(C)C(=O)N1CC(OC)C1)C(=O)N1CCC[C@H](N1)C(=O)OCC(C)(C)C2` tested on KRAS WT (Homo sapiens (Human), UniProt P01116+P62937); state its IC50.
-- reply 100 to 1000 nM
